These measurements were taken from PubChem BioAssay AID602141.

protocol details: KKLEB cell viability reduction – uHTS, fluorescence assay plates, cytotoxicity control for CF NF-kB inhibitor project, primary screen (AID 602141)
measurement context: KKLEB CF airway cells viability, ATPlite luminescence, overnight; at 5 µM; stronger effect = lower value; cells stimulated with P. aeruginosa culture filtrate
Hit rate of the full screen: of about 360,000 compounds, about 1,300 (0.36%) were called active. Many of the other results were omitted from the sample, so actives are more common in it than they were.

- compound: "O=C(CCN1C(=O)[C@@H]2Cc3ccccc3CN2C1=O)NCc1ccccc1"
  activity change (cytotoxicity) / %: -2.4
- compound: "COc1cc(NS(=O)(=O)c2ccc(NC(=S)NC(=O)c3ccc(Br)cc3)cc2)ncn1"
  activity change (cytotoxicity) / %: 1
- compound: "COc1ccccc1NC(=O)C1CCN(C(=O)c2ccc(C(C)(C)C)cc2)CC1"
  activity change (cytotoxicity) / %: 3.1
- compound: "Cc1c2cn[nH]c(=O)c2c(C)n1Cc1ccc(F)cc1"
  activity change (cytotoxicity) / %: -2.2
- compound: "COc1ccc(S(=O)(=O)NC(CC(=O)NCc2ccccc2OC)c2ccco2)cc1 (centres undefined)"
  activity change (cytotoxicity) / %: 5
- compound: "Cc1ccnc(SCC(=O)Nc2cccc(S(=O)(=O)N3CCOCC3)c2)n1"
  activity change (cytotoxicity) / %: 7.3
- compound: "O=C(O)Cc1ccc(NCc2ccccc2Cl)cc1"
  activity change (cytotoxicity) / %: 7.8
- compound: "O=C(O)CC12CC3CC(C1)CC(n1ncc(NCc4ccc(F)cc4)c(Cl)c1=O)(C3)C2"
  activity change (cytotoxicity) / %: -4.6
- compound: "CSc1ccc(CNC(=O)c2ccc(NC(=O)C3=CSCCO3)cc2)cc1"
  activity change (cytotoxicity) / %: -31.3
- compound: "CCOC(=O)c1c(C)[nH]c2c1-c1ccccc1C(=O)C2=O"
  activity change (cytotoxicity) / %: -91.6
- compound: "CC(CN1CCCCC1)OC(=O)c1ccccc1Cl (centres undefined)"
  activity change (cytotoxicity) / %: 0.5
- compound: "COc1ccc(CNc2nnnn2C)cc1"
  activity change (cytotoxicity) / %: 6.7
- compound: "COc1ccc(CCNC(=O)CN(c2ccccc2)S(C)(=O)=O)cc1OC"
  activity change (cytotoxicity) / %: 8.4
- compound: "Cc1cc2c(C)nc(N/N=C/c3ccccc3)nc2o1"
  activity change (cytotoxicity) / %: 16.3
- compound: "O=C(CSc1nnc(N2CCOCC2)n1-c1cccc(F)c1)N1CCN(c2ccccn2)CC1"
  activity change (cytotoxicity) / %: -2.4
- compound: "COCCCNC(=O)C1CC(=O)N(CCc2ccc(F)cc2)C1 (centres undefined)"
  activity change (cytotoxicity) / %: 1.6
- compound: "CSc1cccc(NC(=O)CN2C(=O)COc3ccc(S(=O)(=O)N4CCOCC4)cc32)c1"
  activity change (cytotoxicity) / %: 6.5
- compound: "CCOC(=O)c1c(C)[nH]c(C)c1C(=O)CSc1nc(N)cc(N)n1"
  activity change (cytotoxicity) / %: 13.1
- compound: "CN(C(=O)Nc1ccc(Cl)cc1)n1cnc2ccccc2c1=O"
  activity change (cytotoxicity) / %: 6.1
- compound: "COc1ccc([C@H]2CC(=O)C=C(/C=C/c3ccccc3)C2)cc1"
  activity change (cytotoxicity) / %: 9.7
- compound: "COc1ccc(C(CCN(Cc2ccc(OC)c(OC)c2)C(=O)CCl)c2ccccc2)cc1 (centres undefined)"
  activity change (cytotoxicity) / %: -76.9
- compound: "CO[C@@H]1[C@@H](OC(N)=O)[C@@H](O)C(Oc2ccc3c(O)c(NC(=O)c4ccc(O)c(CC=C(C)C)c4)c(=O)oc3c2C)OC1(C)C (some centres undefined)"
  activity change (cytotoxicity) / %: 44.1
- compound: "CCCn1nnnc1NCc1ccc(OC)cc1"
  activity change (cytotoxicity) / %: 5.9
- compound: "Cc1ccccc1C(CC(=O)c1cccs1)C(C#N)C#N (centres undefined)"
  activity change (cytotoxicity) / %: -51.2
- compound: "CC(C)c1ccc(/C=C2\\NC(=O)NC2=O)cc1"
  activity change (cytotoxicity) / %: 11.8
- compound: "CN(C)/C=C(/C(=O)c1ccc(Cl)c(Cl)c1)c1nnnn1-c1ccccc1"
  activity change (cytotoxicity) / %: 7.2
- compound: "CCOc1ccc(-c2cc(C(=O)N/N=C/c3ccc(O)cc3)c3ccccc3n2)cc1"
  activity change (cytotoxicity) / %: -15.6
- compound: "CN(Cc1ccccc1)S(=O)(=O)c1nnc(NC(=O)c2ccccc2F)s1"
  activity change (cytotoxicity) / %: -8.6
- compound: "CSc1nnc(NC(=O)c2nc(S(=O)(=O)Cc3ccc(C)cc3)ncc2Cl)s1"
  activity change (cytotoxicity) / %: -74.7
- compound: "Cc1ccc(CS(=O)(=O)c2ncc(Cl)c(C(=O)Nc3nnc(C)s3)n2)cc1"
  activity change (cytotoxicity) / %: -93.7
- compound: "CCc1nc2ccc(C(=O)N3CCC(O)(Cc4ccccc4)CC3)cn2c1N(C)C(=O)Cc1ccccc1"
  activity change (cytotoxicity) / %: -15.5
- compound: "CCC/C(O)=C1\\C(=O)CC(C)(C)CC1=Nc1ccccc1OC"
  activity change (cytotoxicity) / %: 21.9
- compound: "CN1c2ccc(C=O)c3c(C=O)ccc(c23)N(C)C1(C)C"
  activity change (cytotoxicity) / %: -67.5
- compound: "O=C(COC(=O)c1ccccc1NC(=O)c1ccco1)Nc1ccc2c(c1)OC(F)(F)O2"
  activity change (cytotoxicity) / %: -4.2
- compound: "Cc1ccc(C=O)c([B-](F)(F)F)c1"
  activity change (cytotoxicity) / %: 7.5
- compound: "O=C(C1CCN(S(=O)(=O)c2ccc(Br)s2)CC1)N1CCN(C2CCCCC2)CC1"
  activity change (cytotoxicity) / %: 13.7
- compound: "CCCN(CCC)C(=S)Nc1cc(C(=O)OC)ccc1C(=O)OC"
  activity change (cytotoxicity) / %: -5.9
- compound: "CC(C[N+](C)(C)C)OC(N)=O (centres undefined)"
  activity change (cytotoxicity) / %: -65.7
- compound: "COc1cccc2c1C(=O)c1c(O)c3c(c(O)c1C2=O)CC(O)(C(C)=NNC(=O)c1ccc(Cl)c(Cl)c1)CC3OC1CC(N)C(O)C(C)O1 (centres undefined)"
  activity change (cytotoxicity) / %: -53.3
- compound: "O=c1c2ccccc2ncn1CCCCOc1ccccc1F"
  activity change (cytotoxicity) / %: 5.1
- compound: "O=C(Nc1nnc(-c2ccc(F)cc2)s1)c1c(F)cccc1Cl"
  activity change (cytotoxicity) / %: 7.4
- compound: "O=C(NCC(=O)N1CCN(c2ccccc2F)CC1)c1cccs1"
  activity change (cytotoxicity) / %: 10.7
- compound: "O=C(NCCCN1CCCCC1)C1CC(=O)N(CCc2ccccc2)C1 (centres undefined)"
  activity change (cytotoxicity) / %: -3.7
- compound: "COc1ccc(CNc2c(CO)cnc3c2cnn3C)cc1"
  activity change (cytotoxicity) / %: -62.1
